test details: TTR transcription activators in neuroblastoma reporter cells, primary screen, cell-based, luminescence, SH-SY5Y, TTR promoter Gaussia luciferase (AID 1117267);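 note: cells exposed to compounds for one day before reading; 0% = median of all test compound wells on the plate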
conditions used: at 16.7 µM, 100% = recombinant luciferase protein wells
The whole screen tested about 92,000 compounds, of which about 1,200 (1.3%) were called active.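 Rule for the calls: active = activation above the mean of all tested compounds plus 3 SD (cut at about 9.5% in these data); inactive = the rest.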 For the sample, actives were picked, then their nearest neighbours and some compounds at random.
Assign a class; possible classes are TRUE (active), FALSE (inactive)

record_smiles=O=C(NNC(=O)c1cc(S(=O)(=O)N2CCCCC2)ccc1Cl)c1ccccc1O qualitative_label=TRUE
record_smiles=Cn1c2ccccc2c(=O)c2c(=O)n(Cc3ccco3)c(COc3ccccc3)nc21 qualitative_label=FALSE
record_smiles=C[C@H](NC(=O)C1CCN(S(=O)(=O)c2ccccc2)CC1)C(=O)NCc1ccccc1 qualitative_label=TRUE

Could you kindly confirm the outcome this assay logged for "COc1ccc2[nH]c3c(=O)n(Cc4ccco4)cnc3c2c1" ? FALSE

Per the assay record, what outcome was assigned to "COc1ccc(-c2oc3ncn(Cc4ccco4)c(=N)c3c2-c2ccc(OC)cc2)cc1" ? TRUE

* * *

test details: TTR transcription activators in neuroblastoma reporter cells, primary screen, cell-based, luminescence, SH-SY5Y, TTR promoter Gaussia luciferase (AID 1117267);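 note: cells exposed to compounds for one day before reading; 0% = median of all test compound wells on the plate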
conditions used: at 16.7 µM, active compounds read high, 100% = recombinant luciferase protein wells
Screen size: about 92,000 compounds; about 1,200 (1.3%) were called active. The entries come from a sample that favours actives as a whole.
activation values for the molecules below.

molecule=COc1ccc(-c2cc3ccc(OCc4nn[nH]n4)cc3oc2=O)cc1 result="0.67% (inactive)"
molecule="CCCOC1CCCN(Cc2cn(C)nc2-c2ccccc2F)C1 (centres undefined)" result="0.85% (inactive)"
molecule=CC(C)(C)OC(=O)N/N=C/c1cn(-c2ccccc2)nc1-c1cccnc1 result="-1.28% (inactive)"
molecule=CCOCC(=O)Nc1sc2c(c1C(=O)OCC)CCCC2 result="2.19% (inactive)"
molecule=COC(=O)c1sc(N)c(C(=O)OC)c1COC(=O)CNS(=O)(=O)c1ccc(C)cc1 result="-1.81% (inactive)"

Can you share its activation? I mean this molecule: CC(NC(=O)C(C)(C)C)C(c1cccs1)N1CCN(Cc2ccccc2)CC1 (centres undefined) -0.04% (inactive)

Which activation is listed for "O=C(NCc1cccc(C(F)(F)F)c1)c1cccc(S(=O)(=O)N2CCN(Cc3ccccc3)CC2)c1" ? -1.01% (inactive)

What value of activation has been recorded for this entry: "COc1ccccc1C(=O)NC(=S)Nc1ccccc1N1CCCCC1" 1.44% (inactive)

So what's the measured activation for this one? CCC(C)C(=O)Nc1ccccc1N1CCN(c2ccc(F)cc2)CC1 (centres undefined) 1.32% (inactive)

Please report the recorded activation for "Cc1nc(-c2ccc(Cl)cc2)sc1C(=O)NN" . 35.4% (active)

Item "COc1ccc2c(CC(=O)OCC(=O)NC(N)=O)coc2c1" has what recorded activation? 1.14% (inactive)

For the molecule shown here, "CC(=O)NC1(c2ccc(F)cc2)CCN(C(=O)c2c(F)cccc2F)CC1" , give the reported activation. 0.91% (inactive)

activation for "C=CCOc1ccc(/C=C2\SC(=S)N(CCC(=O)O)C2=O)cc1" ? 0.39% (inactive)

Query (molecule): "O=C(c1ccc(Cl)c(Cl)c1)N1CCCC1" ; field requested: activation 4.23% (inactive)

I have this molecule here, COc1ccc(C(CNC(=O)c2ccc(S(=O)(=O)Nc3ccccc3C)cc2)N2CCOCC2)cc1 (centres undefined) , and I need its recorded activation. 0.05% (inactive)

Need activation of "CCOC(=O)c1c(NC(=S)Nc2ccccc2C)sc2c1CCC2" , thanks. 1.24% (inactive)

Can you share its activation? I mean this molecule: "CCCCc1cc(=O)oc2cc(C)cc(OCc3nn[nH]n3)c12" 23.1% (active)

So what does the record say about activation for "Cc1ccc(SCC(=O)c2sc(-c3ccccc3)nc2C)cc1" ? 4.57% (inactive)

Recorded activation of CSCCC(NC(N)=O)C(=O)N(C)CC(=O)Nc1ccc(C)cc1 (centres undefined) , please. 22.6% (active)

If you can, please state the reported activation value of "CCOC(=O)c1c(NC(=O)c2ccc(Br)o2)sc2c1CCCC2" . 12.3% (active)

Name the recorded activation for "COc1ccc(-c2nn(-c3ccccc3)cc2/C=C\C(=O)N2CCOCC2)cc1[N+](=O)[O-]" . -1.35% (inactive)

Endpoint output: activation of CCCCN(CC)C(=O)C1CCCN(S(=O)(=O)c2cccc3nsnc23)C1 (centres undefined) . Value? -1.18% (inactive)

What activation value was documented for this molecule, "N#CCc1c[nH]c2ccc([N+](=O)[O-])cc12" ? 1.86% (inactive)
